Each item that follows carries a reported growth.
tested on: HCC-2998 colon; experiment: NCI-60 one-dose screen, 48 h (100 = growth as untreated, 0 = no growth, -100 = all killed); details: 10 µM unless noted
This is part of a sample that, as a whole, favours compounds with a hit. Of some 83,000 tested, about 20% had one in any assay.

# Compound, growth / %
measured = [
    ("O=C(CSC(=S)n1cnnc1)NC(=O)c1ccccc1", 104),
    ("COc1ccc(OC)c(-c2nc(SCC(=O)c3ccc(C#N)cc3)[nH]c(=O)c2C#N)c1", 95.9),
    ("Cc1ccc(C(=O)c2ccc(CC(=O)N/N=C/c3ccccc3O)n2C)cc1", 92.1),
    ("Cc1c(-c2ccc(O)cc2)n(Cc2ccc(OCCN3CCCCCC3)cc2)c2ccc(O)cc12", 114),
    ("CN1CCN(C(=O)c2ccc(NC(=O)c3cc4c(nn3)NCCN4Cc3cc(Cl)ccc3Cl)cc2)CC1", 99.8),
    ("COc1ccc(C(O)c2cc3c(N)c(C(=O)Nc4cccc(Br)c4)sc3nc2C)cc1 (stereo unspecified)", -33.9),
]

====

tested on: NCI-H522 lung; assay: NCI-60 one-dose screen, 48 h (100 = growth as untreated, 0 = no growth, -100 = all killed); details: 10 µM unless noted
About 83,000 compounds went through this panel and 20% of them were active in at least one assay; those are over-represented in the sample as a whole.
Item-by-item account of growth

# Molecule, Tgt, Unit name, growth
records = [
    ("Cc1cccc(CNc2c3ccccc3nc3ccccc23)c1", "NCI-H522 lung", "%", 52.1),
    ("Cc1cc(S(=O)(=O)/N=C(\\N)n2nc(C)c(C)c2C)c(SCc2ccccc2)cc1Cl", "NCI-H522 lung", "%", 17.2),
    ("Oc1c(I)cc(I)cc1CNCc1ccccn1", "NCI-H522 lung", "%", 4.61),
    ("O=C(c1nn(-c2ccccc2)c2c1CC(NCc1ccc(F)cc1)CC2)N1CCCCC1 (centres undefined)", "NCI-H522 lung", "%", 89.3),
    ("C=CCSc1nnc(NC(=O)CCl)s1", "NCI-H522 lung", "%", 85.3),
    ("CCC(C)(C)C(=O)O[C@H]1C[C@@H](C)C=C2C=C[C@H](C)[C@H](CC[C@@H]3CC(SCCN)CC(=O)O3)[C@H]21 (some centres undefined)", "NCI-H522 lung", "%", 65.4),
    ("Cn1cc(-c2csc(-c3c[nH]c4ccc(Br)cc34)n2)c2ccnc(Cl)c21", "NCI-H522 lung", "%", 56.3),
    ("O=C(Nc1nc(-c2ccc(Cl)cc2)nc2c1sc(=S)n2-c1ccccc1)C(F)(F)F", "NCI-H522 lung", "%", 25.2),
    ("COc1ccc(Nc2ncc(Br)c(NCCCNC(=O)C3CCCC3)n2)cc1", "NCI-H522 lung", "%", 65.7),
    ("O=C(CSc1oc(-c2ccccc2)nc1S(=O)(=O)c1ccccc1)Nc1ccc(F)cc1", "NCI-H522 lung", "%", 72.2),
    ("CCC(=O)Oc1ccc(-c2ccccc2)cc1Br", "NCI-H522 lung", "%", 108),
    ("CC(=O)Oc1ccc(/C(=C(\\C)c2ccc(Cl)cc2)c2ccc(OCCN3CCCCC3)cc2)cc1", "NCI-H522 lung", "%", 21.2),
    ("COc1ccc2[nH]c(C(=O)N3CCN(C(=O)OCc4ccc5c(Cl)cc(Cl)c(O)c5n4)CC3)cc2c1", "NCI-H522 lung", "%", -70.8),
    ("CCOC(=O)C1=C(C)NC(=O)NC1c1c(Cl)n(CCCl)c2ccccc12 (centres undefined)", "NCI-H522 lung", "%", 90),
    ("CCCCCCCCCCCCCCCCOCCCOP(=O)(O)C1CCCN(O)C1=O (centres undefined)", "NCI-H522 lung", "%", 26.2),
    ("COCCn1cc(-c2nc(-c3cc4cccnc4[nH]3)cs2)c2cc(OC)ccc21", "NCI-H522 lung", "%", 41.6),
    ("CCN(CC)CC(O)COc1c(Br)c(Br)c(Br)c2c1OC(C)(C)C2 (centres undefined)", "NCI-H522 lung", "%", 145),
    ("COc1ccc2c(c1)c(-c1nc(-c3c[nH]c4ccncc34)cs1)cn2C", "NCI-H522 lung", "%", -71.3),
    ("COc1ccc(/C=N/C2=C(C#N)C(c3ccccc3)c3ccc4ccccc4c3O2)cc1 (centres undefined)", "NCI-H522 lung", "%", -7.09),
]

====

system: MALME-3M melanoma; assay: NCI-60 one-dose screen, 48 h (100 = growth as untreated, 0 = no growth, -100 = all killed); details: 10 µM unless noted
This is part of a sample that, as a whole, favours compounds with a hit. Of some 83,000 tested, about 20% had one in any assay.
Class (by growth) -- bucket 1: < 70%; bucket 2: ≥ 70% and < 90%; bucket 3: ≥ 90%

# Compound, Category
data = [
    ("CC(=O)O[C@@H]1C[C@]2(C(C)C)O[C@@]1(C)[C@@H]1CCC(C)=C1[C@@H]2OC(=O)/C=C/c1ccccc1", "bucket 2"),
    ("CCCCCC(/C=N\\NC(=S)N/N=C/C(=C/c1ccccc1)CCCCC)=C\\c1ccccc1", "bucket 3"),
    ("Clc1ccc2c(c1)C(c1c[nH]c3ccccc13)(c1c[nH]c3ccccc13)CCO2", "bucket 3"),
    ("CCCCCCCCCCC(CN(CC)CC)C(O)c1ccccc1 (stereo not drawn)", "bucket 1"),
    ("O=C(Cn1cc(CSc2nc3ccccc3o2)nn1)Nc1ccc(F)cc1F", "bucket 3"),
    ("COc1ccc2c(c1)CC[C@H](O)/C2=C/c1cc(OC)c(OC)c(OC)c1", "bucket 1"),
    ("O=C(Nc1nc2ccc(C(=O)N3CCN(/C=C/c4ccccc4)CC3)cc2s1)c1ccc(NCCc2ccccc2)c([N+](=O)[O-])c1", "bucket 1"),
    ("Cn1cc(-c2csc(-c3c[nH]c4ccc(Br)cc34)n2)c2ccnc(Cl)c21", "bucket 3"),
    ("O=C(CSc1nc2sc3c(c2c(=O)n1-c1ccccc1)CCCCC3)N/N=C/c1cccc([N+](=O)[O-])c1", "bucket 2"),
    ("O=C(NCCNc1nccc(Nc2ccc(S(=O)(=O)Nc3ccccn3)cc2)n1)c1cccc([N+](=O)[O-])c1", "bucket 3"),
    ("COc1ccc(C(=O)C/C(=C\\c2ccc(Cl)cc2)C(=O)NCc2ccccc2)cc1", "bucket 2"),
    ("CS(=O)(=O)Nc1cncc(-c2ccc3ncnc(Nc4cncc(Cl)c4)c3c2)c1", "bucket 1"),
]

====

test system: HS 578T breast; experiment: NCI-60 one-dose screen, 48 h; settings: 10 µM unless noted
This is part of a sample that, as a whole, favours compounds with a hit. Of some 83,000 tested, about 20% had one in any assay. Active and inactive are the calls of the source. The calls were made as follows: active = growth percent below 10; inactive = the rest.
Possible outcomes: true for active, false for inactive

# Molecule, Category
measured = [
    ("O=S(=O)(NCCCNc1nccc(-c2c(-c3ccc(F)c(O)c3)nc3occn23)n1)c1ccc(Cl)cc1", "false"),
    ("OCCn1cc(-c2nc(-c3c[nH]c4ncccc34)cs2)c2cc(F)ccc21", "false"),
    ("CCOC(=O)C1=C(c2ccccc2)N=C2SC=C(c3ccc(Cl)cc3)N2C1c1ccc(Cl)cc1 (configuration not stated)", "false"),
    ("CC1(C)CC(=O)C2=C(C1)N(c1ccc(OC(F)(F)F)cc1)C(N)=C(C#N)C2c1ccc(Br)cc1F (configuration not stated)", "false"),
    ("Cc1nc2sc(C(=O)Nc3cccc4ccccc34)c(N)c2cc1C(O)c1ccccc1 (configuration not stated)", "true"),
    ("Cc1c(O)cc(-c2cnc(Nc3ccccc3)s2)c(O)c1C", "false"),
    ("COC12C=C/C(=C(/C(=O)OCc3ccncn3)C(=O)CCCCCCCCC3(OC)C=C/C(=C(/C(=O)OCc4ccncn4)C(=O)CCCCCCCC1)O3)O2", "false"),
    ("COc1ccc(/C=N\\Nc2nc(SCCC(C)C)nc(-c3ccc(OC)cc3)c2C#N)cc1", "false"),
    ("CCn1cc(C(=O)O)c(=O)c2cc(F)c(N3CCN(CC(=O)Nc4ccc(S(=O)(=O)Nc5nccc(C)n5)cc4)C(C)C3)c(F)c21 (configuration not stated)", "false"),
    ("NC(=O)c1c(NC(=O)c2ccc3ccccc3c2)sc2c1CCC(=O)C2", "false"),
    ("CCCNc1nc2ccccc2c2c1S(=O)(=O)c1ccc(Cl)cc1C2=O", "true"),
    ("CNC(=O)c1ccccc1Oc1nc(Nc2cc(OC)c(OC)c(OC)c2)ncc1Br", "false"),
    ("Cc1ccc2c(n1)C(=O)C(Br)=C(CC(C)C)C2=O", "false"),
    ("CCCCCCCCCc1ccc(OCCOCCOCCOCCOCCOCCOCCOCCOCCO)cc1", "true"),
    ("N#CC(C#N)N=Nc1ccc(Br)cc1", "false"),
    ("CC/C(=C(/c1ccc(Cl)cc1)c1ccc(OCCN2CCCCC2)cc1)c1ccc(OC)cc1", "false"),
    ("CC(=O)N1N=C(c2ccc(Nc3nc(Nc4ccccc4)nc(Nc4ccccc4)n3)cc2)CC1c1cccc([N+](=O)[O-])c1 (configuration not stated)", "false"),
    ("O=C(/C=C/c1ccccc1)Nc1ncc(Cc2ccccc2Cl)s1", "false"),
    ("Cc1ccc2c(Cn3cc(CSc4nc5ccccc5o4)nn3)cc(=O)oc2c1", "false"),
    ("O=C(N/N=C/c1c(Cl)cccc1Cl)c1cccnc1Nc1cccc(C(F)(F)F)c1", "false"),
    ("O=C(/C=C/c1ccco1)Nc1ncc(Cc2cccc(C(F)(F)F)c2)s1", "true"),
    ("Fc1cc2c(cc1Cl)N(c1ncnc3ccc(-c4ccc5n[nH]nc5c4)cc13)CC2", "false"),
    ("CCOC(=O)[C@@H]1CSC(CC)=C(C(=O)O)N1", "false"),
    ("C#CCOc1cccc(Nc2ncnc3ccc(NC(=O)C=C)cc23)c1", "false"),
    ("COc1ccc(/C=C/C(=O)c2cccc(OCCCCOc3cccc(C(=O)/C=C/c4ccc(OC)c(OC)c4)c3)c2)cc1OC", "false"),
    ("O=C1NC(=O)C(Cc2ccc(OCc3ccc(-c4ccc(Cl)cc4Cl)cc3)cc2)S1 (configuration not stated)", "false"),
    ("Nc1cnc(C(=O)NNc2nc3cc(F)ccc3n3cccc23)cn1", "false"),
]
